Tested on: PLK3
measurement-conditions: concentration: 1 μM, replicates: in singlicate; n = 1;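 note: KINOMEscan kinase panel screen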
Rule: %Inh below 10% gives Y, anything at or above gives N.

# count of solved cases: 8
Cc1cccc(-c2nc(Nc3ccc4[nH]ncc4c3)c3ccccc3n2)n1 [GW857175]    N
O=C(Nc1ccccc1)Nc1cccc(Oc2ccc3nccn3n2)c1    Y
Cn1ccc2ncnc(Oc3ccc(Nc4nc5ccccc5[nH]4)cc3)c21    Y
Fc1cccc(COc2nnc(-c3ccc4c(c3)CCO4)o2)c1    N
Cc1ccc(C(=O)Nc2ccc(Nc3ccnc4cc(-c5ccccn5)ccc34)cc2O)cc1.Cl [GW440146]    Y
Clc1cc(Cl)cc(Nc2ccnc(Nc3cc(Cl)cc(Cl)c3)n2)c1 [GSK175726]    Y
Cc1cc(N2Cc3ccccc3C2)nc(Nc2ccc(S(=O)(=O)N3CCOCC3)cc2)n1.Cl [GSK1669917]    Y
Cc1nnc(-c2ccc3occ(-c4ccc(S(C)=O)cc4)c3c2)[nH]1 (stereo not shown)    Y

Now for a further compound.
Dear colleague, could you confirm whether %Inh of COc1cc2ncn(-c3cc(OCC4CCCO4)c(C(N)=O)s3)c2cc1OC (stereo not shown) [GSK204607] falls below 10%? Thanks.
N

---

System: MKNK2
measurement-conditions: concentration: 1 μM, replicates: in singlicate; n = 1
Reported %Inh values follow for various molecules
Provide a numeric answer, followed by its unit.

Cn1ccc2ncnc(Oc3ccc(NC(=O)Nc4ccccc4)cc3)c21    43%

Given the entry Cn1cncc1-c1ccc2ncnc(Nc3ccc(OCc4ccccc4)cc3)c2c1 [GW320571] , report its measured %Inh.
27%

Recorded %Inh for Cc1nnc(-c2ccc3occ(-c4ccc(S(C)=O)cc4)c3c2)[nH]1 (stereo not shown) , please?
49%

---

System: GRK3
Construct: gene ADRBK2
measurement-conditions: concentration: 1 μM, replicates: in singlicate; n = 1
Lab note: cut-off is 10%. Strictly less in %Inh is Fulfilled. Exactly 10% or more is Not fulfilled.

Cc1cccc(-c2nc(-c3ccc(S(C)(=O)=O)cc3)sc2-c2ccnc(NCCc3ccccc3)c2)c1    Fulfilled
Cc1c(O)cccc1Nc1ccnc2ccc(C(F)(F)F)cc12.Cl    Fulfilled
CC(=O)Nc1nc2cnc(Nc3cc(NC(=O)c4cccc(CCC#N)c4)ccc3C)nc2s1    Fulfilled
Nc1nc(-c2nccs2)c(-c2ccnc3ccccc23)s1    Not fulfilled
CC1=C(C(=O)Nc2cc3cn[nH]c3cc2F)C(c2ccc(C(F)(F)F)cc2)CC(=O)N1 (stereo not drawn)    Not fulfilled

Item Cc1cccc(-c2nc(C)cc(Nc3ccncc3)n2)n1 : %Inh beneath 10%, strictly?
Fulfilled

Given the entry O=c1cc(N2CCOCC2)nc2n(Cc3cccc(Cl)c3Cl)ccn12 , would its reported %Inh be below 10%?
Fulfilled

Consider COc1cccc(-c2cc(-c3c[nH]nc3-c3ccccn3)ccn2)c1 . Does its %Inh lie strictly below 10%?
Not fulfilled

Could you please tell me whether %Inh recorded for Cn1ccc2ncnc(Oc3ccc(NC(=O)Nc4ccccc4)cc3)c21 is less than 10%?
Not fulfilled

Lab note: %Inh threshold 10%. Does this compound come in strictly under it? O=S(=O)(c1ccc(-c2ccnc3[nH]ccc23)cc1)N1CCCC1
Fulfilled

Report whether reported %Inh is lower than 10% (strictly) for Cc1cccc(-c2cc(Nc3ccncc3)c3ccccc3n2)n1
Fulfilled

Report whether reported %Inh is lower than 10% (strictly) for COc1ccccc1CNC(=O)c1cc(C(=O)c2ccccc2C)c[nH]1
Not fulfilled

Strictly below 10% in %Inh? Cc1c(Cn2ccn3c(=O)cc(N4CCOCC4)nc23)cccc1C(F)(F)F
Fulfilled

meta.source: paper PMC5540273
